tested on: TK-10; assay: NCI-60 SRB screening (one-dose and five-dose); assay type: cell-based, human; conditions: TK-10, 10 μM, 48 h
READOUT KIND: Growth Percent
Report field: quantity (unit follows the number).

# example entries with known answers
MOLECULE	Growth Percent
COC(=O)[C@]12CC[C@@H](C(C)=O)[C@@H]1[C@H]1CC[C@@H]3[C@@]4(C)C/C(=C\c5cccnc5)C(=O)C(C)(C)[C@@H]4CC[C@@]3(C)[C@]1(C)CC2	132.71%
C[C@H]1[C@@H]2[C@H]3CC[C@@H]4[C@@]5(C)CC[C@H](O)C(C)(C)[C@@H]5CC[C@@]4(C)[C@]3(C)CC[C@]23CO[C@@]1(C)[C@@H](C(=O)/C=C/c1ccco1)C3	97.40%

## Input Look up Growth Percent: CC(=O)O[C@H]1CC[C@]2(C)[C@H]3CC[C@@H]4[C@H]5[C@H](C)[C@@]6(C)OC[C@]5(CC[C@@]4(C)[C@]3(C)CC[C@H]2C1(C)C)CC6C(C)=O (stereo partly shown)
## Output 109.75%

## Input Growth Percent lookup needed for C[C@H]1[C@@H]2[C@H]3CC[C@@H]4[C@@]5(C)CC[C@H](O)C(C)(C)[C@@H]5CC[C@@]4(C)[C@]3(C)CC[C@]23CO[C@@]1(C)C(C(=O)/C=C/c1cccnc1)C3 (stereo partly shown) , thanks.
## Output 31.89%

## Input Consider the molecule C[C@H]1[C@@H]2[C@H]3CC[C@@H]4[C@@]5(C)C/C(=C\c6cccnc6)C(=O)C(C)(C)[C@@H]5CC[C@@]4(C)[C@]3(C)CC[C@]23CO[C@@]1(C)[C@@H](C(=O)/C=C/c1cccnc1)C3 and give its measured Growth Percent.
## Output −14.49%

## Input Any idea what its Growth Percent is? The molecule is COC(=O)[C@]12CC[C@@H](C(=O)/C=C/c3cccnc3)[C@@H]1[C@H]1CC[C@@H]3[C@@]4(C)C/C(=C\c5cccnc5)C(=O)C(C)(C)[C@@H]4CC[C@@]3(C)[C@]1(C)CC2
## Output −60.49%

## Input I am curious: what Growth Percent value has been reported for CC(=O)[C@H]1C[C@]23CC[C@]4(C)[C@H](CC[C@@H]5[C@@]6(C)CCC(=O)C(C)(C)[C@@H]6CC[C@]54C)[C@H]2[C@H](C)[C@@]1(C)OC3 ?
## Output 76.40%

----------
tested on: MDA-MB-435; experiment: NCI-60 SRB screening (one-dose and five-dose); assay type: cell-based, human; conditions: MDA-MB-435, 10 μM, 48 h
Growth Percent for assorted compounds
Give the number; % is assumed, so skip it.

Consider the following illustrative entries.
COMPOUND	READOUT KIND	DATA VALUE
COC(=O)[C@]12CC[C@@H](C(C)=O)[C@@H]1[C@H]1CC[C@@H]3[C@@]4(C)C/C(=C\c5cccnc5)C(=O)C(C)(C)[C@@H]4CC[C@@]3(C)[C@]1(C)CC2	Growth Percent	72.63
CC(=O)O[C@H]1CC[C@]2(C)[C@H]3CC[C@@H]4[C@H]5[C@H](C)[C@@]6(C)OC[C@]5(CC[C@@]4(C)[C@]3(C)CC[C@H]2C1(C)C)CC6C(C)=O (stereo partly shown)	Growth Percent	83.22

## Input What does the record list as Growth Percent for C[C@H]1[C@@H]2[C@H]3CC[C@@H]4[C@@]5(C)CC[C@H](O)C(C)(C)[C@@H]5CC[C@@]4(C)[C@]3(C)CC[C@]23CO[C@@]1(C)C(C(=O)/C=C/c1cccnc1)C3 (stereo partly shown) ?
## Output 34.50

## Input # query: Growth Percent of entry C[C@H]1[C@@H]2[C@H]3CC[C@@H]4[C@@]5(C)C/C(=C\c6cccnc6)C(=O)C(C)(C)[C@@H]5CC[C@@]4(C)[C@]3(C)CC[C@]23CO[C@@]1(C)[C@@H](C(=O)/C=C/c1cccnc1)C3
## Output −7.30

Data provenance: paper PMC8509773
